protocol: NF-kB promoter reporter activators, neuronal cells, dose response, cell-based, SH-SY5Y, luciferase (AID 1241)
condition.description: fold induction
endpoint.name: EC50

# structure.smiles.string, reported.value
measured = [
    ("O=C(CCc1ccccc1)Nc1ccc2ccccc2n1", "16200 nM"),
    ("O=C(Nc1ncc(Cc2ccccc2)s1)c1cccs1", "1080 nM"),
    ("Cc1ccnc(NC(=O)/C=C/c2ccccc2Cl)c1", "10400 nM"),
    ("CCOC(=O)c1ccc(Nc2ncccc2[N+](=O)[O-])cc1", "2820 nM"),
    ("O=C(/C=C/Nc1ccccc1C(F)(F)F)c1ccco1", "1470 nM"),
    ("CC(=Nc1ccc(O)cc1)c1sc2ccccc2c1O", "2160 nM"),
    ("Cc1ccc(N=Cc2sc(O)c3ccccc23)cc1", "1730 nM"),
    ("O=c1c(-c2ccc3c(c2)OCCO3)coc2cc(O)cc(O)c12", "22700 nM"),
    ("Cc1ccc(/C=N/Nc2nnc(Cl)c3ccccc23)cc1", "1530 nM"),
    ("O=C(Nc1ccc(Cl)cc1Cl)C1=Cc2ccccc2OC1", "8040 nM"),
    ("Nc1ccc(/C=C/C(=O)c2cccs2)cc1", "8720 nM"),
    ("COc1ccc(-c2cn3cc(C)ccc3n2)cc1OC", "3370 nM"),
    ("O=C(/C=C/c1cccs1)N1CCc2ccccc21", "356 nM"),
    ("Oc1ccc(-c2nnc(-c3ccc(O)cc3)nn2)cc1", "5890 nM"),
    ("CCCCc1ccc(NC(=O)c2cnccn2)cc1", "250 nM"),
    ("Cc1ccc(-c2noc(-c3ccccc3F)n2)cc1", "6840 nM"),
    ("N#C/C(=C\\c1ccc(OCc2ccc(C(=O)O)cc2)cc1)C(=O)N1CCOCC1", "12100 nM"),
    ("CCCCOC(=O)Nc1nc2ccccc2s1", "3470 nM"),
    ("COc1cccc(/C=N/Nc2nccnc2Cl)c1O", "2170 nM"),
    ("CSc1ccc(/C=C/c2ccc3cccc(O)c3n2)cc1", "2490 nM"),
    ("Cc1ccc(NC(=O)N2CCc3ccccc32)cc1C", "361 nM"),
    ("Cc1ccc(C(=O)Nc2ncc(Cc3ccc(F)cc3)s2)o1", "6160 nM"),
    ("Oc1cccc(/C=N/Nc2cccc3cccnc23)c1", "1350 nM"),
]
